Origin of values: patent US12404295B2

# EXPERIMENTAL TARGET: human Gal-3 (hGal-3) (Homo sapiens (Human))
# TEST METHOD NOTES: competitive binding assay: biotinylated hGal-3 binding to microplate-adsorbed asialofetuin (ASF)
# CONDITION PARAMETERS: Gal-3 inhibition; binding of biotinylated hGal-3 to ASF; mean values; read-out: IC50
Could you mark each record fulfilled if its IC50 falls strictly under 300 nM, and not fulfilled if it equals or exceeds it?

MOLECULE	LABEL VALUE
CC(C)(O)[C@@H](S[C@@H]1O[C@H](CO)[C@H](O)[C@H](n2cc(-c3cc(F)c(F)c(F)c3)nn2)[C@H]1O)c1ccccc1C(F)(F)F [Example 2.31.112S.]	not fulfilled
CC(C)(O)C(S[C@@H]1O[C@H](CO)[C@H](O)[C@H](n2cc(-c3cc(F)c(F)c(F)c3)nn2)[C@H]1O)c1cccc2ccccc12 (some centres unmarked)	fulfilled

[ask] Problem: For the molecule OC[C@H]1O[C@@H](SC(c2ccccc2C(F)(F)F)C2(O)CCNCC2)[C@H](O)[C@@H](n2cc(-c3cc(F)c(F)c(F)c3)nn2)[C@H]1O (some centres unmarked) , is IC50 under 300 nM?
[reply] fulfilled

[ask] Problem: For the molecule CC(C)c1cccnc1[C@H](S[C@@H]1O[C@H](CO)[C@H](O)[C@H](n2cc(-c3cc(F)c(F)c(F)c3)nn2)[C@H]1O)C1(O)CCC(F)(F)CC1 [Example 2.44.132S.] , is IC50 under 300 nM?
[reply] not fulfilled

[ask] Problem: For the molecule O=C(NC1CC1)N1CC(O)(C(S[C@@H]2O[C@H](CO)[C@H](O)[C@H](n3cc(-c4cc(F)c(F)c(F)c4)nn3)[C@H]2O)c2ccccc2C(F)(F)F)C1 (some centres unmarked) , is IC50 under 300 nM?
[reply] fulfilled

* * *

# EXPERIMENTAL TARGET: human Gal-1 (hGal-1) (Homo sapiens (Human))
# Sequence (P09382 whole entry): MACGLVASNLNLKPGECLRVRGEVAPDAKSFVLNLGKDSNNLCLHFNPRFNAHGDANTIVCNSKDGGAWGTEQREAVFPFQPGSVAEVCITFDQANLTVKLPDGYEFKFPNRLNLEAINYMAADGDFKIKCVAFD
PROPERTY LABEL: pIC50
Answers are plain numbers, as −log10 of the molar value.

COMPOUND	pIC50
CO[C@@H]1[C@@H](n2cc(-c3cc(F)c(F)c(F)c3)nn2)[C@@H](O)[C@@H](CO)O[C@H]1S[C@H](c1nccnc1Cl)C1(O)CCC(F)(F)CC1 [Example 2.44.133R.I.]	6.18
CC(C)(O)[C@@H](S[C@@H]1O[C@H](CO)[C@H](O)[C@H](n2cc(-c3cc(F)c(F)c(F)c3)nn2)[C@H]1O)c1cccnc1C(F)(F)F [Example 2.31.118S.]	5.09

For the next question, use this compound.
For CC(C)c1cccnc1[C@H](S[C@@H]1O[C@H](CO)[C@H](O)[C@H](n2cc(-c3cc(F)c(F)c(F)c3)nn2)[C@H]1O)C1(O)CCC(F)(F)CC1 [Example 2.44.132S.] the compound record lists pIC50 as 5.33

* * *

# EXPERIMENTAL TARGET: human Gal-3 (hGal-3) (Homo sapiens (Human), UniProt P17931)
# Sequence (P17931 whole entry): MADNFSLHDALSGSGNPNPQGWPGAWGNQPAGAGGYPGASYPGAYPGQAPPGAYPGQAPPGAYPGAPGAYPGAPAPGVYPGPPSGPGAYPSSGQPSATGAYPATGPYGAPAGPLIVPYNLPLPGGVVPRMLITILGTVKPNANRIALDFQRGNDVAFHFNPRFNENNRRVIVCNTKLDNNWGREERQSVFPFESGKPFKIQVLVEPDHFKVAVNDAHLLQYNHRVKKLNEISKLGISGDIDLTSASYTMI
# TEST METHOD NOTES: competitive binding assay: biotinylated hGal-3 binding to microplate-adsorbed asialofetuin (ASF)
# CONDITION PARAMETERS: Table 10; 2-OMe-Gal inhibitors; read-out: IC50 (Gal-3 inhibition)
I'd appreciate it if you could supply pIC50 values for the items below.
Numbers only, as −log10 of the molar value.

MOLECULE	pIC50
CO[C@@H]1[C@@H](n2cc(-c3cc(F)c(F)c(F)c3)nn2)[C@@H](O)[C@@H](CO)O[C@H]1S[C@H](c1nocc1C)C1(O)CCOCC1 [Example 2.41.120R.I.]	6.72
CO[C@@H]1[C@@H](n2cc(-c3cc(F)c(F)c(F)c3)nn2)[C@@H](O)[C@@H](CO)O[C@H]1S[C@H](c1nocc1C)C1(O)CCS(=O)(=O)CC1 [Example 2.66.120R.I.]	7.15

For CO[C@@H]1[C@@H](n2cc(-c3cc(F)c(F)c(F)c3)nn2)[C@@H](O)[C@@H](CO)O[C@H]1S[C@H](c1ccccc1C(C)C)C1(O)CCC(F)(F)CC1 [Example 2.44.105R.I.] the molecule record lists pIC50 as 6.49
